As shown below, each of these sequences has a reported phosphorylation enrichment value.
Tested on: AncSZ
Assay: phosphorylation enrichment, bacterial display (enrichment ratio); higher = better substrate or ligand; peptides without Tyr show the background
Lab note: record just the number, no unit beside it.

The following sequences have reported results that may help.
# Sequence Content, phosphorylation enrichment
data = [
    ("SLGKGYYDGGC [MC4R_Y35_S36Y]", 0.96),
    ("GGFTCCCDGKK [PROS1_Y266_Y266C_YF]", 1.12),
]

Provide one value: measured phosphorylation enrichment of VSLEAYCKHKF [RXRA_Y403_A398V_YF]
0.949

Provide one value: measured phosphorylation enrichment of IEPCIYIPEDD [XPNPEP3_Y455_G453C]
1.23

Provide one value: measured phosphorylation enrichment of IGGHAYGDQYR [IDH1_Y135_R132G]
0.52

* * *

Target: Grb2 SH2 (UniProt P62993)
Sequence (P62993 whole entry, looked up): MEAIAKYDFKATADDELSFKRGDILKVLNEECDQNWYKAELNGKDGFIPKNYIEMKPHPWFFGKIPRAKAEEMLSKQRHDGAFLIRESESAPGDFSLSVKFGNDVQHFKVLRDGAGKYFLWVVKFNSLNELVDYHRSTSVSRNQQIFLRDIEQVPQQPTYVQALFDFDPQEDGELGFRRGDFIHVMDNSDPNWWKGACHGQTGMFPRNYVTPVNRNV
Assay: SH2 binding enrichment of the phosphorylated peptide, bacterial display (enrichment ratio); higher = better substrate or ligand; peptides without Tyr show the background
Reported Property: SH2 binding enrichment
Lab note: record just the number, no unit beside it.

# Sequence Content, SH2 binding enrichment
records = [
    ("MDYRSYPHEYG [RBM10_Y44_R46H]", 0.647),
    ("RSRQIYDAYIM [GRK3_Y109]", 0.822),
    ("EMFNPCFGLFE [NEDD4L_Y679_Y679C_YF]", 1.08),
    ("EQRRAYLEGTC [HLA-C_Y183_L180R]", 0.867),
    ("LADKPYTFEYY [FXN_Y118_D122Y]", 1.19),
]

Enter measured SH2 binding enrichment, system Grb2 SH2 (UniProt P62993), for the sequence shown: INITIYGKTFR [EFHC1_Y177]
1.01

Enter measured SH2 binding enrichment, system Grb2 SH2 (UniProt P62993), for the sequence shown: GHGEEYPAAGA [NOTCH3_Y2221]
0.888

* * *

As shown below, each of these sequences has a reported SH2 binding enrichment value.
Biological target: Grb2 SH2 (UniProt P62993)
Test: SH2 binding enrichment of the phosphorylated peptide, bacterial display (enrichment ratio); higher = better substrate or ligand; peptides without Tyr show the background
Lab note: record just the number, no unit beside it.

The following sequences have reported results that may help.
# Sequence Content, SH2 binding enrichment
measured = [
    ("QRPGPYDRPGA [HNRNPH2_Y210]", 0.972),
    ("ISGGGYRARPA [FGB_Y71]", 0.771),
]

Provide one value: measured SH2 binding enrichment of PEADKYRLPFA [FGG_Y300_T303P_YF]
0.821

* * *

Test system: Fer (mouse)
Test: phosphorylation enrichment, bacterial display (enrichment ratio); higher = better substrate or ligand; peptides without Tyr show the background
Reported Property: phosphorylation enrichment
Lab note: record just the number, no unit beside it.

The following sequences have reported results that may help.
# Sequence Content, Result Number
data = [
    ("DFDNLYYWDQD [ERBB2_Y1221_A1216D]", 3.8),
    ("FFRRHYPLTTL [TNS4_Y644]", 0.455),
    ("TFFQMYDKGLV [IARS2_Y231_YF]", 0.57),
    ("INITIYGKTFR [EFHC1_Y177]", 0.936),
    ("SFCFRYCCAAR [SUMF1_Y344_R345C_YF]", 0.517),
    ("KVQVSYKGDTK [HSPA1A_Y107_E110D]", 0.328),
    ("IEDPFYGNDSD [ACP1_Y133_YF]", 0.755),
    ("LFSNAYLNDLA [ALDH1A1_Y119_YF]", 0.688),
    ("VECRVYAEDPY [PCCA_Y401]", 0.708),
    ("VSTAVYKRFPS [BEST1_Y148]", 0.395),
]

Provide one value: measured phosphorylation enrichment of ISSLDYISKTK [VAV3_Y294]
0.386

Provide one value: measured phosphorylation enrichment of ATPKGYERDAS [OTC_Y223_P225R]
0.518

Provide one value: measured phosphorylation enrichment of TRSCKYLLLSM [NF1_Y491_Y489C]
0.416

Provide one value: measured phosphorylation enrichment of DSDTDYGSGFP [RNASEH2A_Y206_L202S_YF]
0.492

Provide one value: measured phosphorylation enrichment of FYDANYDGKEY [MAPRE2_Y162]
0.627

* * *

Test system: c-Src
Experiment: phosphorylation enrichment, bacterial display (enrichment ratio); higher = better substrate or ligand; peptides without Tyr show the background
Lab note: anything with phosphorylation enrichment at or over 0.6 counts as Yes; the rest go in No.

# Sequence Content, System Under Test, Discrete Label
measured = [
    ("VLNDAYENLTR [SYNE2_Y3255]", "c-Src", "No"),
    ("PSVVAYPKRSQ [MARK3_Y432]", "c-Src", "No"),
    ("PIPIKYKAMKK [MYD88_Y257_L252P]", "c-Src", "No"),
    ("RASSVFTRSTG [CCR5_Y339_Y339F]", "c-Src", "Yes"),
    ("PNAFIYVVQLP [L1CAM_Y420_A415P_YF]", "c-Src", "Yes"),
]

Next:
Answer whether phosphorylation enrichment of IVRSLYKDLED [VHL_Y185_E186K] is greater than or equal to 0.6.
No

* * *

Target: Jak2 (UniProt O60674)
Sequence (O60674 whole entry, looked up): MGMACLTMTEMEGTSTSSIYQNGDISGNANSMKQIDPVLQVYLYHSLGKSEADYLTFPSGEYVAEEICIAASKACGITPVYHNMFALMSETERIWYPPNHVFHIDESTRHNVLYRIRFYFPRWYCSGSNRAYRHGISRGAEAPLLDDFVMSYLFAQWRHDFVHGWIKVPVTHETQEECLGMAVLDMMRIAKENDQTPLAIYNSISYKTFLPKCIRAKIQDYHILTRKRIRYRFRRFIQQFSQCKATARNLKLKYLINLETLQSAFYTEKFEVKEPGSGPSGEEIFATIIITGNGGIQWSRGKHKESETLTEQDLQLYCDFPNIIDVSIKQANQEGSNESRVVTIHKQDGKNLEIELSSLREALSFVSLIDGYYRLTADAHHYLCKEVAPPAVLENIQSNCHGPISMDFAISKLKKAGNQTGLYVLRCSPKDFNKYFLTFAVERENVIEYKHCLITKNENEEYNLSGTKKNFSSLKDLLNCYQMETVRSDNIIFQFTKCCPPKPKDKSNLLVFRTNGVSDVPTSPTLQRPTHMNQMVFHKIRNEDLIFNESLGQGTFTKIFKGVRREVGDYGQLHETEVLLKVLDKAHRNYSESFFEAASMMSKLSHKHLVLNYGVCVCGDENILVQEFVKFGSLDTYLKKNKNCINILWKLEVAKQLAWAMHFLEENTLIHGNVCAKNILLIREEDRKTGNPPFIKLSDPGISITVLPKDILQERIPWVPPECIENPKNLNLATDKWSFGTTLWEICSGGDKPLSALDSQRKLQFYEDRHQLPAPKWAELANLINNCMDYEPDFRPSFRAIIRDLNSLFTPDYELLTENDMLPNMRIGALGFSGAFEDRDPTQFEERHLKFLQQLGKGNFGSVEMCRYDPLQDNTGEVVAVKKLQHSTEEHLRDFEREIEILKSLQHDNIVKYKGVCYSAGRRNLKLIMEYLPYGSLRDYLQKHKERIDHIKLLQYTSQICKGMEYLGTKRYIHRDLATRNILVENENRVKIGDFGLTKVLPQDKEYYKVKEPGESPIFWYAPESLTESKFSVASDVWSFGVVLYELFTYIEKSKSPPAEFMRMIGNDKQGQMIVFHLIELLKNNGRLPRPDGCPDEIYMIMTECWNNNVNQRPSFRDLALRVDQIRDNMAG
Assay: phosphorylation enrichment, bacterial display (enrichment ratio); higher = better substrate or ligand; peptides without Tyr show the background
Lab note: anything with phosphorylation enrichment at or over 0.7 counts as 1; the rest go in -1.

Below are worked cases with known answers.
# Sequence Content, Discrete Label
measured = [
    ("DKITQYVEEVR [STX2_Y49_K54R]", 1),
    ("DLDTEYGSGFP [RNASEH2A_Y206_D205E_YF]", 1),
    ("KASRKYFAMKI [AKT3_Y173_G171R_YF]", -1),
    ("PVGVLYKVKVF [PTS_Y128_YF]", 1),
    ("SFCFRYCCAAR [SUMF1_Y344_R345C_YF]", 1),
    ("TTSQPYRCLCS [USH2A_Y534]", 1),
    ("LTDLRYKVSGL", -1),
    ("EPGNLYIAKVE [CNTN4_Y180_T176P]", 1),
    ("RSSGPYGGGGQ [HNRNPA1_Y341]", -1),
    ("VECRVYAEDPY [PCCA_Y401]", 1),
]

Answer whether phosphorylation enrichment of LFQAKYQIRYR [CRLF1_Y272] is greater than or equal to 0.7.
1

Answer whether phosphorylation enrichment of MTFQNYRQALF [FAM20C_Y279_G280R] is greater than or equal to 0.7.
1

Answer whether phosphorylation enrichment of GGFTCCCDGKK [PROS1_Y266_Y266C_YF] is greater than or equal to 0.7.
1

Answer whether phosphorylation enrichment of KELAKYFKLHH [AK7_Y390_N389K_YF] is greater than or equal to 0.7.
-1

Answer whether phosphorylation enrichment of TFFQMYDKGLV [IARS2_Y231_YF] is greater than or equal to 0.7.
1

Answer whether phosphorylation enrichment of GLAELYEYKKK [CKAP5_Y1854] is greater than or equal to 0.7.
-1

Answer whether phosphorylation enrichment of IGGHAYGDQYR [IDH1_Y135_R132G] is greater than or equal to 0.7.
-1

Answer whether phosphorylation enrichment of LGQRIYQYIRS [DYRK1B_Y271_Q275R] is greater than or equal to 0.7.
1

Answer whether phosphorylation enrichment of HLVSEYQQYQD [TUBB3_Y422_D417H] is greater than or equal to 0.7.
1

Answer whether phosphorylation enrichment of HRDSSYYWEIE [RAF1_Y340_Q335H] is greater than or equal to 0.7.
1

Answer whether phosphorylation enrichment of KLYRVYCDMNT [FGB_Y269_P265L] is greater than or equal to 0.7.
1

Answer whether phosphorylation enrichment of TRSFDYMEGGD [FGF7_Y58_YF] is greater than or equal to 0.7.
1

Answer whether phosphorylation enrichment of RLRKFYLGKFL [KLB_Y906_YF] is greater than or equal to 0.7.
-1

Answer whether phosphorylation enrichment of QRPYVYYYSYL [PTEN_Y176_R173P] is greater than or equal to 0.7.
1

Answer whether phosphorylation enrichment of RNYDTYTAGLS [RHBDD1_Y264] is greater than or equal to 0.7.
-1

* * *

As shown below, each of these sequences has a reported SH2 binding enrichment value.
Biological target: Grb2 SH2 (UniProt P62993)
Experiment: SH2 binding enrichment of the phosphorylated peptide, bacterial display (enrichment ratio); higher = better substrate or ligand; peptides without Tyr show the background

The following sequences have reported results that may help.
# Sequence Content, Result
records = [
    ("RLRKFYLGKFL [KLB_Y906_YF]", 0.679),
    ("AESPEYVHMYT [FAM111A_Y511]", 0.768),
    ("VDSAHYQLLET [DTX3L_Y385_K386Q]", 0.677),
    ("EFITRYIDSLK [PSMA7_Y110_A112D_YF]", 0.818),
    ("GVSFIYTIDGS [DCX_Y105_R102S_YF]", 0.88),
    ("RGRSTYFWPRP [GAGE12J_Y9_YF]", 0.456),
]

Next item in the queue.
Provide one value: measured SH2 binding enrichment of NELTYYCCKKD [CD59_Y87]
0.78
